- Tested on: NCI-H460 tumor-bearing mice (lung cancer)
- test-summary: Biodistribution: lutetium accumulation in tumor, plasma and healthy tissues by ICP-MS
- Format: in vivo
- condition-summary: 0.5 mg/kg lutetium conjugate; plasma; 72 h
reported-property: % ID/g uptake, Plasma, 72 h (% ID/g)
Answer with a number only, understood to be in % ID/g.

CCNC(=O)c1nnc(-c2cc(C(C)C)c(O)cc2O)n1-c1ccc(OC2CCN(C(=O)CCNC(=O)[C@@H](CCC(=O)O)NC(=O)[C@@H](CCC(=O)O)NC(=O)[C@@H](CCC(=O)O)NC(=O)COCCOCCNC(=O)[C@H](CCCCNC(=O)CC[C@H](C(=O)O)N3CCN4CCN5CCN(CC3)CC(=O)[O][Lu]([O]C(=O)C5)[O]C(=O)C4)NC(=O)CCCc3ccc(I)cc3)CC2)cc1 [T11] :: 0.02

Attention now shifts to the item below.
So for CCNC(=O)c1nnc(-c2cc(C(C)C)c(O)cc2O)n1-c1ccc(CN2CCN(C(=O)CC[C@H](NC(=O)CCNC(=O)[C@@H](CCC(=O)O)NC(=O)[C@@H](CCC(=O)O)NC(=O)[C@@H](CCC(=O)O)NC(=O)COCCOCCNC(=O)CC[C@H](C(=O)O)N3CCN4CCN5CCN(CC3)CC(=O)[O][Lu]([O]C(=O)C5)[O]C(=O)C4)C(=O)N3CCN(Cc4ccc(-n5c(C(=O)NCC)nnc5-c5cc(C(C)C)c(O)cc5O)cc4)CC3)CC2)cc1 [T5] , the logged % ID/g uptake, Plasma, 72 h turned out to be 0.01

----------
- Test system: NCI-H460 tumor-bearing mice (lung cancer)
- test-summary: Biodistribution: lutetium accumulation in tumor, plasma and healthy tissues by ICP-MS
- Assay type: in vivo
- condition-summary: second table; plasma; 24 h
reported-property: Plasma, % ID/g 24 h
Please answer in the form of a number followed by its unit of measurement.

Summary line: CCNC(=O)c1nnc(-c2cc(C(C)C)c(O)cc2O)n1-c1ccc(OC2CCN(C(=O)CCOCCOCCOCCOCCOCCOCCOCCOCCOCCOCCOCCOCCNC(=O)CN3CCN4CCN5CCN(CC3)CC(=O)[O][Lu]([O]C(=O)C4)[O]C(=O)C5)CC2)cc1 [CMP41] , NCI-H460 tumor-bearing mice (lung cancer), reported Plasma, % ID/g 24 h = 0.52 % ID/g

----------
Readings of T/P (Tumor/Plasma ratio) for the listed compounds
- System: NCI-H460 tumor-bearing mice (lung cancer)
- test-summary: Biodistribution: lutetium accumulation in tumor, plasma and healthy tissues by ICP-MS
- Format: in vivo
- condition-summary: 24 h
Answer with the value's number alone.

In the examples that follow, each entry is paired with its recorded T/P (Tumor/Plasma ratio).
CCNC(=O)c1nnc(-c2cc(C(C)C)c(O)cc2O)n1-c1ccc(OC2CCN(C(=O)CCOCCOCCOCCOCCNC(=O)CC[C@@H](C(=O)O)N(CC)CCN3CCN4CCN(C)CC(=O)[O][Lu]([O]C(=O)C4)[O]C(=O)C3)CC2)cc1 :: 2.51
CCNC(=O)c1nnc(-c2cc(C(C)C)c(O)cc2O)n1-c1ccc(CC2CCN(C(=O)CCOCCOCCOCCOCCNC(=O)CN3CCN4CCN5CCN(CC3)CC(=O)[O][Lu]([O]C(=O)C4)[O]C(=O)C5)CC2)cc1 :: 5.19
CCNC(=O)c1nnc(-c2cc(C(C)C)c(O)cc2O)n1-c1ccc(C2CCN(C(=O)CCOCCOCCOCCOCCNC(=O)CN3CCN4CCN5CCN(CC3)CC(=O)[O][Lu]([O]C(=O)C4)[O]C(=O)C5)CC2)cc1 :: 2.75

So for CCNC(=O)c1nnc(-c2cc(C(C)C)c(O)cc2O)n1-c1ccc(OC2CCN(C(=O)CCOCCOCCOCCOCCNC(=O)[C@H](CCCCNC(=O)CCCc3ccc(I)cc3)NC(=O)CN3CCN4CCN5CCN(CC3)CC(=O)[O][Lu]([O]C(=O)C4)[O]C(=O)C5)CC2)cc1 , the logged T/P (Tumor/Plasma ratio) turned out to be 1.98

----------
- Tested on: NCI-H460 tumor-bearing mice (lung cancer)
- test-summary: Biodistribution: lutetium accumulation in tumor, plasma and healthy tissues by ICP-MS
- Type: in vivo
- condition-summary: 0.5 mg/kg lutetium conjugate; liver; 72 h
- Experimental: Lutetium accumulation was measured in tumor, plasma and healthy tissues of NCI-H460 tumor-bearing mice (lung cancer). NCJ-H460 tumor bearing mice were dosed with 0.5 mg/kg of lutetium conjugates. At the time points indicated, mice were sacrificed and tumor, liver, kidneys and plasma were taken. All tissues were analyzed for lutetium content by ICP-MS, and lutetium uptake in % ID/g determined by the following equation: […]
Readings of % ID/g uptake, Liver, 72 h for the listed compounds
Answer with a number only, understood to be in % ID/g.

In the examples that follow, each entry is paired with its recorded % ID/g uptake, Liver, 72 h.
CCNC(=O)c1nnc(-c2cc(C(C)C)c(O)cc2O)n1-c1ccc(CN2CCN(C(=O)CCNC(=O)[C@@H](CCC(=O)N3CCN(Cc4ccc(-n5c(C(=O)NCC)nnc5-c5cc(C(C)C)c(O)cc5O)cc4)CC3)NC(=O)CCNC(=O)[C@@H](CCC(=O)O)NC(=O)[C@@H](CCC(=O)O)NC(=O)[C@@H](CCC(=O)O)NC(=O)COCCOCCNC(=O)[C@H](Cc3ccccc3)NC(=O)CNC(=O)CNC(=O)CC[C@H](C(=O)O)N3CCN4CCN5CCN(CC3)CC(=O)[O][Lu]([O]C(=O)C5)[O]C(=O)C4)CC2)cc1 :: 0.07
CCNC(=O)c1nnc(-c2cc(C(C)C)c(O)cc2O)n1-c1ccc(OC2CCN(C(=O)CCNC(=O)[C@@H](CCC(=O)N3CCC(Oc4ccc(-n5c(C(=O)NCC)nnc5-c5cc(C(C)C)c(O)cc5O)cc4)CC3)NC(=O)CC[C@H](C(=O)O)N3CCN4CCN5CCN(CC3)CC(=O)[O][Lu]([O]C(=O)C5)[O]C(=O)C4)CC2)cc1 :: 8.90
CCNC(=O)c1nnc(-c2cc(C(C)C)c(O)cc2O)n1-c1ccc2c(ccn2CCC2CCN(C(=O)CCNC(=O)[C@@H](CCC(=O)O)NC(=O)[C@@H](CCC(=O)O)NC(=O)[C@@H](CCC(=O)O)NC(=O)COCCOCCNC(=O)[C@H](CCCCNC(=O)CC[C@H](C(=O)O)N3CCN4CCN5CCN(CC3)CC(=O)[O][Lu]([O]C(=O)C5)[O]C(=O)C4)NC(=O)CCCc3ccc(I)cc3)CC2)c1 :: 1.01

So for CCNC(=O)c1nnc(-c2cc(C(C)C)c(O)cc2O)n1-c1ccc(OC2CCN(C(=O)CCNC(=O)[C@@H](CCC(=O)N3CCC(Oc4ccc(-n5c(C(=O)NCC)nnc5-c5cc(C(C)C)c(O)cc5O)cc4)CC3)NC(=O)CCNC(=O)[C@@H](CCC(=O)O)NC(=O)[C@@H](CCC(=O)O)NC(=O)[C@@H](CCC(=O)O)NC(=O)COCCOCCNC(=O)[C@H](CCCCNC(=O)CC[C@H](C(=O)O)N(CC)CCN3CCN4CCN(C)CC(=O)[O][Lu]([O]C(=O)C4)[O]C(=O)C3)NC(=O)CCCc3ccc(I)cc3)CC2)cc1 , the logged % ID/g uptake, Liver, 72 h turned out to be 2.03

So for CCNC(=O)c1nnc(-c2cc(C(C)C)c(O)cc2O)n1-c1ccc(OC2CCN(C(=O)CCNC(=O)[C@@H](CCC(=O)O)NC(=O)[C@@H](CCC(=O)O)NC(=O)[C@@H](CCC(=O)O)NC(=O)COCCOCCNC(=O)[C@H](CCCCNC(=O)CC[C@H](C(=O)O)N3CCN4CCN5CCN(CC3)CC(=O)[O][Lu]([O]C(=O)C5)[O]C(=O)C4)NC(=O)CCCc3ccc(I)cc3)CC2)cc1 , the logged % ID/g uptake, Liver, 72 h turned out to be 0.46

So for CCNC(=O)c1nnc(-c2cc(C(C)C)c(O)cc2O)n1-c1ccc(CN2CCN(C(=O)CCNC(=O)[C@@H](CCC(=O)N3CCN(Cc4ccc(-n5c(C(=O)NCC)nnc5-c5cc(C(C)C)c(O)cc5O)cc4)CC3)NC(=O)CCNC(=O)[C@@H](CCC(=O)O)NC(=O)[C@@H](CCC(=O)O)NC(=O)[C@@H](CCC(=O)O)NC(=O)COCCOCCNC(=O)CC[C@H](C(=O)O)N3CCN4CCN5CCN(CC3)CC(=O)[O][Lu]([O]C(=O)C5)[O]C(=O)C4)CC2)cc1 , the logged % ID/g uptake, Liver, 72 h turned out to be 0.62

So for CCNC(=O)c1nnc(-c2cc(C(C)C)c(O)cc2O)n1-c1ccc(CN2CCN(C(=O)CC[C@H](NC(=O)CCNC(=O)[C@@H](CCC(=O)O)NC(=O)[C@@H](CCC(=O)O)NC(=O)[C@@H](CCC(=O)O)NC(=O)COCCOCCNC(=O)CC[C@H](C(=O)O)N3CCN4CCN5CCN(CC3)CC(=O)[O][Lu]([O]C(=O)C5)[O]C(=O)C4)C(=O)N3CCN(Cc4ccc(-n5c(C(=O)NCC)nnc5-c5cc(C(C)C)c(O)cc5O)cc4)CC3)CC2)cc1 , the logged % ID/g uptake, Liver, 72 h turned out to be 0.23

So for CCNC(=O)c1nnc(-c2cc(C(C)C)c(O)cc2O)n1-c1ccc(CN2CCN(C(=O)CCNC(=O)[C@@H](CCC(=O)N3CCN(Cc4ccc(-n5c(C(=O)NCC)nnc5-c5cc(C(C)C)c(O)cc5O)cc4)CC3)NC(=O)CCNC(=O)[C@@H](CCC(=O)O)NC(=O)[C@@H](CCC(=O)O)NC(=O)[C@@H](CCC(=O)O)NC(=O)COCCOCCNC(=O)CNC(=O)[C@H](CCCCN)NC(=O)CNC(=O)CC[C@H](C(=O)O)N3CCN4CCN5CCN(CC3)CC(=O)[O][Lu]([O]C(=O)C5)[O]C(=O)C4)CC2)cc1 , the logged % ID/g uptake, Liver, 72 h turned out to be 0.25

So for CCNC(=O)c1nnc(-c2cc(C(C)C)c(O)cc2O)n1-c1ccc2c(ccn2CCC2CCN(C(=O)CC[C@H](NC(=O)CC[C@H](C(=O)O)N3CCN4CCN5CCN(CC3)CC(=O)[O][Lu]([O]C(=O)C5)[O]C(=O)C4)C(=O)N3CCC(CCn4ccc5cc(-n6c(C(=O)NCC)nnc6-c6cc(C(C)C)c(O)cc6O)ccc54)CC3)CC2)c1 , the logged % ID/g uptake, Liver, 72 h turned out to be 4.34
